Would you kindly list inhibition at 2 µM for each of these molecules?
- Target Or Test System: human GPR84 receptor (Homo sapiens, UniProt Q9NQS5)
- Construct: host or cells: HEK293, transient transfection
- Sequence (Q9NQS5 whole entry): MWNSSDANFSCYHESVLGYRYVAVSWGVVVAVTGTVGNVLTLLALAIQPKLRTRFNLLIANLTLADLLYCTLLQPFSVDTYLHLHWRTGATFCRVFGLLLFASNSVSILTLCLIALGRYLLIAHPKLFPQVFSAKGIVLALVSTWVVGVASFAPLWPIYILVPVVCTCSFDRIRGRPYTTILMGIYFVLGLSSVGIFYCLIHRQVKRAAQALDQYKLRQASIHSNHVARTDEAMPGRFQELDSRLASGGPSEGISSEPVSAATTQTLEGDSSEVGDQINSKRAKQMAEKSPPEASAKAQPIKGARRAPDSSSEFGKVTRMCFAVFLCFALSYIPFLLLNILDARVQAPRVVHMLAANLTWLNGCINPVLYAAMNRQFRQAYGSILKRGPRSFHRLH
- Experiment Summary: Gαi biosensor BRET assay in HEK293 cells (antagonism of ZQ-16)
- Format: cell-based
- Test Conditions: HEK293, single concentration 2 μM (designated A)

Ask: Tell me the measured inhibition at 2 µM of "CC1(C)COC(Cn2cc(-c3ccc(N4CCN(Cc5ccccn5)CC4)cc3CC(F)(F)F)nn2)OC1" , please.
Result: > 75%

Ask: Tell me the measured inhibition at 2 µM of CCc1cc(C#CCNc2ccccc2)cnc1-c1cn(CC2CC(C)(C)CO2)nn1 (centres unmarked) , please.
Result: > 75%

Ask: Tell me the measured inhibition at 2 µM of Cc1cc(C#CC2CC2)ccc1-c1cn(CC2CC(F)(F)CO2)nn1 (centres unmarked) , please.
Result: ≤ 25%

Ask: Tell me the measured inhibition at 2 µM of CCc1c(C#CC2CC2)cccc1Cc1cn(CC2CCCCO2)nn1 (centres unmarked) , please.
Result: ≤ 25%

Ask: Tell me the measured inhibition at 2 µM of "CO[C@@H](c1cn(C[C@H]2CCCCO2)nn1)c1cc(C#CC2CC2)ccc1C" , please.
Result: 50 to 75%

Ask: Tell me the measured inhibition at 2 µM of "CN(c1ccc(C#N)cc1)c1cn(CC2OCC(C)(C)CO2)nn1" , please.
Result: > 75%

Ask: Tell me the measured inhibition at 2 µM of "CC1(C)CN(CC#Cc2cnc(-c3cn(CC4OCC5(CC5)CO4)nn3)c(OC3CC3)c2)C1" , please.
Result: > 75%

Ask: Tell me the measured inhibition at 2 µM of "CC(C)Oc1cc(C#CC2CC(F)(F)C2)cnc1-c1cn(CC2OCC(C)(C)CO2)nn1" , please.
Result: > 75%

* * *

- Target Or Test System: human GPR84 receptor (Homo sapiens)
- Construct: host or cells: HEK293, transient transfection
- Experiment Summary: Gαi biosensor BRET assay in HEK293 cells (antagonism of ZQ-16)
- Type: cell-based
- Test Conditions: HEK293, single concentration 10 μM (designated F)
Would you kindly list inhibition at 10 µM for each of these molecules?

Ask: Tell me the measured inhibition at 10 µM of Cc1cc(C(=O)n2ccc(N)n2)ccc1-c1cn(CC2CCCCO2)nn1 (stereo not shown) , please.
Result: 25 to 50%

Ask: Tell me the measured inhibition at 10 µM of Cc1cc(N2CCN(Cc3ccccn3)CC2)ccc1-c1cn(CC2CCCCO2)nn1 (stereo not shown) , please.
Result: > 75%

Ask: Tell me the measured inhibition at 10 µM of "CN(c1cccc(C#CC2CC2)c1)c1cn(CC2OCC(C)(C)CO2)nn1" , please.
Result: ≤ 25%

Ask: Tell me the measured inhibition at 10 µM of Cc1cc(C#CCN(C)CC2(C(F)(F)F)CC2)ccc1-c1cn(CC2CCCCO2)nn1 (stereo not shown) , please.
Result: 50 to 75%

Ask: Tell me the measured inhibition at 10 µM of Cc1cc(N2CC3(CN(c4cccnc4)C3)C2)ccc1-c1cn(CC2CCCCO2)nn1 (stereo not shown) , please.
Result: ≤ 25%

Ask: Tell me the measured inhibition at 10 µM of "Cc1cc(C#CC2CC2)ccc1-c1cn(Cc2ncccn2)nn1" , please.
Result: 50 to 75%

Ask: Tell me the measured inhibition at 10 µM of Cc1cc(C#CC2CC2)ccc1-c1cn(CC(O)CO)nn1 (stereo not shown) , please.
Result: 25 to 50%

Ask: Tell me the measured inhibition at 10 µM of COC(c1cn(CC2CCCCO2)nn1)c1c(C)ccc(C#CC2CC2)c1F (stereo not shown) , please.
Result: > 75%

Ask: Tell me the measured inhibition at 10 µM of Cc1cc(C#CCn2cc(C3CC3)nn2)cnc1-c1cn(CC2CCCCO2)nn1 (stereo not shown) , please.
Result: ≤ 25%

Ask: Tell me the measured inhibition at 10 µM of Cc1cc(N2CC(C(C)O)C2)ccc1-c1cn(CC2CCCCO2)nn1 (stereo not shown) , please.
Result: 50 to 75%

Ask: Tell me the measured inhibition at 10 µM of "Cc1cc(C2CC2)cnc1-c1cn(CC2OCC(C)(C)CO2)nn1" , please.
Result: 25 to 50%

Ask: Tell me the measured inhibition at 10 µM of Cc1cc(N2CC(C)(CNc3ccccc3)C2)ccc1-c1cn(CC2CCCCO2)nn1 (stereo not shown) , please.
Result: > 75%

Ask: Tell me the measured inhibition at 10 µM of "Cc1cc(C#CC2CC2)ccc1-c1cn(Cc2nccs2)nn1" , please.
Result: 25 to 50%

Ask: Tell me the measured inhibition at 10 µM of Cc1ccc(-c2ccc(C3CN(CC4CCCCO4)C(=O)O3)c(C)c2)cn1 (stereo not shown) , please.
Result: ≤ 25%

Ask: Tell me the measured inhibition at 10 µM of "Cc1cc(C#CC2CC2)cnc1-c1cn(CC2OCC(F)(F)CO2)nn1" , please.
Result: 50 to 75%

Ask: Tell me the measured inhibition at 10 µM of Cc1cc(C#CCn2cc(-c3ccccc3)nn2)ccc1-c1cn(CC2CCCCO2)nn1 (stereo not shown) , please.
Result: > 75%

Ask: Tell me the measured inhibition at 10 µM of O=c1oc(CC2CCCCO2)nn1Cc1ccc(C#CC2CC2)cc1 (stereo not shown) , please.
Result: > 75%

Ask: Tell me the measured inhibition at 10 µM of Cc1cc(N2CC3(CCN(C(=O)c4ccccc4)CC3)C2)ccc1-c1cn(CC2CCCCO2)nn1 (stereo not shown) , please.
Result: 50 to 75%

Ask: Tell me the measured inhibition at 10 µM of CC1(CO)CN(c2ccc(-c3cn(CC4OCC5(CCC5)O4)nn3)c(OC3CC3)c2)C1 (stereo not shown) , please.
Result: > 75%

Ask: Tell me the measured inhibition at 10 µM of "Cc1cc(N2CCN(Cc3ccccn3)CC2)ccc1-c1cn(C[C@H]2CCCCO2)cn1" , please.
Result: > 75%

Ask: Tell me the measured inhibition at 10 µM of Cc1cc(N2CC3(CCCN3C)C2)ccc1-c1cn(CC2CCCCO2)nn1 (stereo not shown) , please.
Result: 50 to 75%

Ask: Tell me the measured inhibition at 10 µM of "Cc1cc(C#CC2CC2)ccc1-c1cn(CC2OCC3(CC3)CO2)nn1" , please.
Result: > 75%

Ask: Tell me the measured inhibition at 10 µM of Cc1cc(N2CCN(Cc3ccn(C)n3)CC2)ccc1-c1cn(CC2CCCCO2)nn1 (stereo not shown) , please.
Result: > 75%

Ask: Tell me the measured inhibition at 10 µM of Cc1ccc(C#CCN2CC(C)(C)C2)cc1Cc1cn(CC2CCCCO2)nn1 (stereo not shown) , please.
Result: 25 to 50%

Ask: Tell me the measured inhibition at 10 µM of Cc1cc(C#CC2CC2)ccc1-c1nn(CC2CCCCO2)c(=O)o1 (stereo not shown) , please.
Result: ≤ 25%

Ask: Tell me the measured inhibition at 10 µM of Cc1cc(N2CC(C(F)F)C2)ccc1-c1cn(CC2CCCCO2)nn1 (stereo not shown) , please.
Result: 50 to 75%

Ask: Tell me the measured inhibition at 10 µM of Cc1cc(C#CC2CC2)ccc1-c1cn(CC2COCCN2C)nn1 (stereo not shown) , please.
Result: ≤ 25%

Ask: Tell me the measured inhibition at 10 µM of CNC(C)(C)COc1ccc(-c2cn(CC3CCCCO3)nn2)c(C)c1 (stereo not shown) , please.
Result: 25 to 50%

Ask: Tell me the measured inhibition at 10 µM of Cc1cc(C(=O)NCC2CC2)ccc1-c1cn(CC2CCCCO2)nn1 (stereo not shown) , please.
Result: 50 to 75%

Ask: Tell me the measured inhibition at 10 µM of "COCC1CN(c2ccc(-c3cn(CC4OCC(C)(C)CO4)nn3)c(N(C)C)c2)C1" , please.
Result: > 75%

Ask: Tell me the measured inhibition at 10 µM of Cc1cc(N2CCC(N(C)C)CC2)ccc1-c1cn(CC2CCCCO2)nn1 (stereo not shown) , please.
Result: ≤ 25%

Ask: Tell me the measured inhibition at 10 µM of Cc1cc(N2CCN(Cc3ccccn3)CC2)ccc1-c1cn(CC2CCC(C)(C)CO2)nn1 (stereo not shown) , please.
Result: > 75%

Ask: Tell me the measured inhibition at 10 µM of "Cc1cc(N2CC(C)(CO)C2)cnc1-c1cn(CC2OCC(C)(C)CO2)nn1" , please.
Result: > 75%

Ask: Tell me the measured inhibition at 10 µM of "COCC#Cc1cnc(-c2cn(CC3OCC(C)(C)CO3)nn2)c(OCC(F)(F)F)c1" , please.
Result: ≤ 25%
